molecular target: T1, Human PD-1-His protein (Cat. #10377H08H, Sino Biological) (human, UniProt Q15116 25-167); test: SPR (Biacore), antibody captured on Protein A chip, PD-1 in flow
T1 construct: Bought protein; also called hPD-1-His; hu PD-1-his; not shown: His tag of the bought protein
T1 sequence (Q15116 25-167 limits assumed): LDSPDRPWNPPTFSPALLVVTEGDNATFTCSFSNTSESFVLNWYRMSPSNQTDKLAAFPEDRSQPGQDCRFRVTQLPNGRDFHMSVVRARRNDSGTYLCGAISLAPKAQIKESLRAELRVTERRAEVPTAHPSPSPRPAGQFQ
Each record here notes measured Kd.
attribute measured: Kd

>>> result("murine antibody M33 (antibody, V domains shown) VH: KVMLVESGGGLVKPGGSLKLSCAASGFTFSSYAMSWVRQTPEKRLEWVATISGGGVDTYYQDNVQGRFTISRDNAKNTLYLQMSSLRSEDTALYYCASPYGHGYFDVWGTGTTVTVSS VL: DIQMTQTTSSLSASLGDRVTISCRASQDINNFLNWYQQKPDGTVKLLIYYTSSLHSGVPSRFSGSGSGTDYSLTISNLEQEDIATYFCQQGNTLPWTFGGGTKLEIK")
"0.737 nM"
>>> result("Hu23-9.IgG4AA (antibody, V domains shown, Full-length IgG4-AA, kappa; also called Hu23LCDR1 (N28Q)) VH: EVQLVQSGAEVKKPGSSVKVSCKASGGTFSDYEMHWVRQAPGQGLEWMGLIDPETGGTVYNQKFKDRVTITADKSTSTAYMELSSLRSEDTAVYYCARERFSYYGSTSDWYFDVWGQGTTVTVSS VL: DIVMTQTPLSLPVTPGEPASISCRSSQSLVHSQGNTYLEWYLQKPGQSPQLLIYKVSNRFSGVPDRFSGSGSGTDFTLKISRVEAEDVGVYYCFQGSHVPYTFGGGTKVEIKR")
"2.15 nM"
>>> result("Hu33-4.IgG4AA (antibody, V domains shown, Full-length IgG4-AA, kappa) VH: EVQLVESGGGLVQPGGSLRLSCAASGFTFSSYAMSWVRQAPGKGLEWVATISGGGVDTYYQDNVQGRFTISRDNAKNSLYLQMNSLRAEDTAVYYCARPYGHGYFDVWGQGTTVTVSS VL: DIQMTQSPSSLSASVGDRVTITCRASQDINNFLNWYQQKPGKAPKLLIYYTSSLHSGVPSRFSGSGSGTDYTLTISSLQPEDFATYYCQQGNTLPWTFGGGTKVEIKR")
"31.4 nM"
>>> result("murine antibody M32 (antibody, V domains shown) VH: QVQLQQSGAELVRPGASVTLSCKASDFTFTDYEIHWVKQTPVHGLEWIGLFDPETGGIVYNQKFKGKAILTADKSSNTAYMEFRSLTSEDSAVYYCTREGYNRDWYFDVWGTGTTVTVSS VL: DVLMTQTPLSLPVSLGDQASISCRSSQSIVHSNGNTYLEWYLQKPGQSPKLLIYKVSNRFSGVPDRFSGSGSGTDFTLKISRVEAEDLGIYYCFQGSHVPYAFGGGTKLEIK")
"5.3 nM"
